Target: T1, full-length Annexin A1 protein (346 amino acids; Accession No. NP-000691.1) (human, UniProt P04083 1-346)
T1 construct: Biotinylated for biopanning; coated at 4 ug per well for ELISA
T1 sequence: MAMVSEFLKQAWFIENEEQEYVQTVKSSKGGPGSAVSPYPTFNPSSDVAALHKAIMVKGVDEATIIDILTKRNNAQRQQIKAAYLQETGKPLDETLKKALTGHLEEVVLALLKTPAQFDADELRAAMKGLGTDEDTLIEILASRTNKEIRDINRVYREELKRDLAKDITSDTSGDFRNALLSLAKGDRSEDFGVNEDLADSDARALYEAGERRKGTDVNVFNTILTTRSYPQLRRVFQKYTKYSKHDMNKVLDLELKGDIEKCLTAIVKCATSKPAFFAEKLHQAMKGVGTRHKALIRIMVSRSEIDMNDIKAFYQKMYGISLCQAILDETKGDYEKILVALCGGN
Test: scFv selected by ELISA on plate-coated full-length Annexin A1, anti-HA-HRP detection

binder: scFv F10 (scFv) scFv: EVQLLESGGGLVQPGGSLRLSCAASGFTFSDYSMSWVRQAPGKGLEWVSVISPDSSNTYYADSVKGRFTISRDNSKNTLYLQMNSLRAEDTAVYYCAKVTGTCGPRSCYYYDAMDVWGQGTLVTVSSGGGGSGGGGSGGGGSQSVLTQPPSASGTPGQRVTISCSGSSSNIGSNAVSWYQQLPGTAPKLLIYYNSHRPSGVPDRFSGPKSGTSASLAISGLRSEDEADYYCATWDSSLNGYVFGGGTKLTVLG
binding result: binds

binder: scFv F6 (scFv, also called clone C5) scFv: EVQLLESGGGLVQPGGSLRLSCAASGFTFSNYAMSWVRQAPGKGLEWVSSISSNSGNKYYADSVKGRFTISRDNSKNTLYLQMNSLRAEDTAVYYCAKATLGMDHIHAYSAYGMDVWGQGTLVTVSSGGGGSGGGGSGGGGSQSVLTQPPSASGTPGQRATISCTGSSSNIGSNSVSWYQQLPGTAPKLLIYANSNRPSGVPDRFSGSKSGTSASLAISGLRSEDEADYYCAAWDDSLNAYVFGGGTKLTVLG
binding result: binds

Data provenance: patent US20150086553A1
